Ref: patent US8946439B2

tested-system: hP2X3 (Homo sapiens)
Construct: expressed in transfected cells; host or cells: e.g. HEK293 or 1321N1
Sequence (P56373 1-397): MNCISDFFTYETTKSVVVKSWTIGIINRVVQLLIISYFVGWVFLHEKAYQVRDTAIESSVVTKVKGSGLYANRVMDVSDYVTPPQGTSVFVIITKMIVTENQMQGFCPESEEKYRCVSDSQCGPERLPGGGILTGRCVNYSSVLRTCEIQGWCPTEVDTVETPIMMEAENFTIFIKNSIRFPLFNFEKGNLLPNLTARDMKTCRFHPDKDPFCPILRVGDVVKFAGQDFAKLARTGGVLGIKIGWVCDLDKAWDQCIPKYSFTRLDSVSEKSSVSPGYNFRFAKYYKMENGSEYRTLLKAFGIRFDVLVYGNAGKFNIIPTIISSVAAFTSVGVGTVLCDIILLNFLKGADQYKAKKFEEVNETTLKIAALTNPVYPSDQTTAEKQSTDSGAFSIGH
method-summary: Calcium uptake assay (P2X antagonist assay), P2X3 homomer
Assay type: cell-based
experimental-parameters: Ca influx (calcium uptake assay), hP2X3; read-out: IC50 hP2X3
Examples of molecules with documented IC50 follow.

Would you please look over these solved cases?
Cc1ccc(-c2cc(C(=O)NCc3ccc(C)[n+]([O-])c3)cc(S(C)(=O)=O)c2)cc1 [Compound 256]; < 0.1 µM
Cc1ccc(-c2cc(C(=O)NCc3ccc(C)nc3)cc(C(F)(F)F)c2)nc1 [Compound 202]; 0.1 to 0.5 µM

Lookup: Given COCc1cc(C(=O)N[C@H](C)c2cnc(C)nc2)cc(-c2ccc(C)cn2)c1 [Compound 274] , state its recorded IC50.
Found: 0.1 to 0.5 µM

Lookup: Likewise for [2H]C([2H])([2H])c1ccc(-c2cc(C(=O)NCc3ccc(C)nc3)cc(C(=O)N3CCCC3)c2)cc1 [Compound 203] ?
Found: < 0.1 µM
